Data provenance: paper PMC5085689

# maps each entry to its inhibition at 100 µM
Target: purified liver bovine arginase (b-ARG I) (Bos taurus)
Construct: commercially-available purified bovine arginase (b-ARG I) instead of animal tissue; purchased MP Biomedicals; host or cells: bovine liver (enzyme purified from tissue)
Sequence (Q2KJ64 whole entry): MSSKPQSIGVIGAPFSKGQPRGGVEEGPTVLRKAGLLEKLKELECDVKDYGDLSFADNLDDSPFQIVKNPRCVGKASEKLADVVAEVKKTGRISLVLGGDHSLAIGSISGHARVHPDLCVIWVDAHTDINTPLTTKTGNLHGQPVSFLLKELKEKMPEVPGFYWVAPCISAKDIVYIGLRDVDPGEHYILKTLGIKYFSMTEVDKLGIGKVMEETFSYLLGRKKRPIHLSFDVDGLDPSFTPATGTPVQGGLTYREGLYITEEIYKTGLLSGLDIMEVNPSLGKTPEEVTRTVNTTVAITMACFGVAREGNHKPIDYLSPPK
Assay: In vitro colorimetric microassay of arginase inhibition on purified bovine liver arginase;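 also: urea formed from L-arginine detected colorimetrically with alpha-isonitrosopropiophenone at 550 nm after 60 min at 37 °C, inhibition relative to solvent controls taken as 100% arginase activity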
Type: biochemical
Conditions: 100 μM final concentration; three separate in-duplicate experiments; read-out: b-ARG I Inhibition (%) (100 μM)
// return numeric value only (unit: %, not printed)

>>> recorded_measurement("COc1cc(/C=C/C(=O)NCCc2ccccc2)ccc1O [Compound 2]")
37

# molecule O=C(/C=C/c1ccccc1)NCCc1ccc(O)cc1 [Compound 10, (E)-N-(4-Hydroxyphenethyl)-cinnamide] ; its inhibition at 100 µM = 34

# molecule COc1cc(/C=C/C(=O)NCCc2ccc(O)c(O)c2)cc(OC)c1OC [Compound 14] ; its inhibition at 100 µM = 53

# molecule COc1cc(/C=C/C(=O)NCCc2ccc(O)cc2)ccc1O [Compound 7] ; its inhibition at 100 µM = 24

# molecule N=C(NO)NCC[C@H](N)C(=O)O [nor-NOHA, N^ω-hydroxy-nor-L-arginine, reference compound] ; its inhibition at 100 µM = 99

# molecule COC(=O)C(Cc1ccc(O)c(O)c1)NC(=O)C=Cc1ccc(O)c(O)c1 (stereo not drawn) [Compound 18] ; its inhibition at 100 µM = 62
